I'd appreciate it if you could supply Primary assay EC50 (cAMP), n2 values for the items below.
- SYSTEM_TESTED: GLP-1 receptor (GLP-1R), primary cAMP assay (human, UniProt P43220 24-463)
- PROTOCOL_DESCRIPTION: cell-based or functional assay
Starred links: 1 amine or outer side, 2 acyl side, 3 side chain; linkers in the order of their positions; H or OH if unused. Non-standard residues stand in square brackets, D forms with d. Groups on a side chain read outwards from the residue. Primed or numbered codes have the meaning given here. No end group written: not given here. *: point of attachment. γGlu = O=C(O)[C@H](CCC(=O)[*:2])N[*:1]; Palmitoyl = CCCCCCCCCCCCCCCC(=O)*; αMeF = C[C@](N)(Cc1ccccc1)C(=O)O; αMeK = C[C@](N)(CCCCN)C(=O)O; Lauroyl = CCCCCCCCCCCC(=O)*; αMeS = C[C@](N)(CO)C(=O)O; PEG2′ = not defined here; Aib = CC(C)(N)C(=O)O
Give bare numbers, in nM.

Worked cases, Primary assay EC50 (cAMP), n2 given:
H[Aib]EGTFTSDVSK([PEG2′-PEG2′-γGlu-Lauroyl])YLEGEAAEEFIK([PEG2′-PEG2′-γGlu-Lauroyl])WVVEGG-NH2 [SEQ ID NO: 236]: 0.0268
H[Aib]EGS[αMeF]TSDVSK([PEG2′-PEG2′-γGlu-Lauroyl])YLEGEAA[αMeK]EFIK([PEG2′-PEG2′-γGlu-Lauroyl])WVVEGG-NH2 [SEQ ID NO: 249]: 0.00649
H[Aib]EGS[αMeF]TSDK([PEG2′-PEG2′-γGlu-Lauroyl])SSYLEGEAA[αMeK]EFIAWK([PEG2′-PEG2′-γGlu-Lauroyl])VEGG-NH2 [SEQ ID NO: 258]: 0.125

Consider the following items and state reported Primary assay EC50 (cAMP), n2 for each.
1. H[Aib]EGS[αMeF]TSDVSK([PEG2′-PEG2′-γGlu-Palmitoyl])YLEGEAA[αMeK]EFIK([PEG2′-PEG2′-γGlu-Palmitoyl])WVVEGG-NH2 [SEQ ID NO: 251]
2. H[Aib]EGS[αMeF]TSDK([PEG2′-PEG2′-γGlu-Lauroyl])SSYLEGEAA[αMeK]EFIK([PEG2′-PEG2′-γGlu-Lauroyl])WVVEGG-NH2 [SEQ ID NO: 256]
3. H[Aib]EGS[αMeF]TSDK([PEG2′-PEG2′-γGlu-Palmitoyl])SSYLEGEAA[αMeK]EFIAK([PEG2′-PEG2′-γGlu-Palmitoyl])VVEGG-NH2 [SEQ ID NO: 260]

0.0462
0.00557
0.443

// each binder listed below needs its Primary assay EC50 (cAMP), n2
1. H[Aib]EGS[αMeF]TSDV[αMeS]SK([PEG2′-PEG2′-γGlu-Palmitoyl])LEGEAA[αMeK]EFIAWK([PEG2′-PEG2′-γGlu-Palmitoyl])VEGG-NH2 [SEQ ID NO: 267]
2. H[Aib]EGS[αMeF]TSDV[αMeS]SK([PEG2′-PEG2′-γGlu-Palmitoyl])LEGEAA[αMeK]EFIAK([PEG2′-PEG2′-γGlu-Palmitoyl])VVEGG-NH2 [SEQ ID NO: 266]

[0.51, 0.557]
